Origin of measurements: PubChem BioAssay AID1626

Catalogue of inhibition readings, one per entry.
Assay: M. tuberculosis H37Rv growth inhibitors, H37Rv strain (AID 1626);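 also: bacteria incubated seven days before Alamar blue readout; 0% = bacteria only wells and 100% = bacteria with antibiotic wells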
Details: stronger effect = higher value, concentration not given here
Among all 220,000 compounds or so, about 2,000 (0.91%) were called active. Another 2% or so got no clear call; they are omitted. Only a sample is shown. Entries with a potency or affinity are not part of this list.

Answered cases to consult:
> print(dat)
                                   compound  recorded.metric       assay.result
1         CC(C)(C)c1ccc(C(=O)NCCN2CCCC2)cc1       inhibition  -0.48% (inactive)
2  Cc1ccc(N2C(=O)[C@@H]3[C@H](C2=O)C2c4ccccc4C=NN2[C@@H]3C(=O)c2ccc(Cl)cc2)cc1 (stereo not given in full)       inhibition   8.72% (inactive)
3              O=C(CSc1nc2ccccc2o1)c1ccccc1       inhibition   9.75% (inactive)
4   Cn1cnc([N+](=O)[O-])c1Sc1ncnc2nc[nH]c12       inhibition   7.31% (inactive)
5  Cc1ccc(-c2csc(NC(=O)CSc3nc4ccccc4o3)n2)cc1       inhibition   65.3% (inactive)

Entry `Cc1ccc(C(=O)NCCN2C3=NC[C@@H](Cc4ccccc4)N3C[C@H]2Cc2ccc(O)cc2)cc1Br` needs its inhibition filled in; supply it.
40.7% (inactive)

Entry `CC(=O)Nc1ccccc1-c1ccc(C)o1` needs its inhibition filled in; supply it.
-8.39% (inactive)

Entry `COc1cccc(/C=N/n2c(SC)nnc2-c2ccccc2)c1OC` needs its inhibition filled in; supply it.
-6.45% (inactive)

Entry `COc1ccc(-c2nnc3n2C(C)(C)Cc2cc(OC)c(OC)cc2-3)cc1` needs its inhibition filled in; supply it.
3.77% (inactive)

Entry `COc1cccc(/C=c2\s/c(=C\C(=O)C(C)(C)C)[nH]c2=O)c1` needs its inhibition filled in; supply it.
8.13% (inactive)

###

Catalogue of inhibition readings, one per entry.
Experiment: M. tuberculosis H37Rv growth inhibitors, H37Rv strain (AID 1626);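 also: bacteria incubated seven days before Alamar blue readout; 0% = bacteria only wells and 100% = bacteria with antibiotic wells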
Conditions: stronger effect = higher value, concentration not given here
The campaign covered roughly 220,000 compounds. About 2,000 (0.91%) were called active. Roughly 2% stayed inconclusive and do not appear here. A selection follows. Measured potencies and affinities stand elsewhere.

> print(dat)
                                   molecule       assay.result
1         Cc1ccc(OCCCC(=O)Nc2ccc(Br)cc2)cc1   -4.3% (inactive)
2  CN(c1ccccc1C(=O)NC1CC2CCC1C2)S(=O)(=O)c1ccccc1 (configuration not stated)   5.72% (inactive)
3  COc1ccc(/C=C/C(=O)c2ccc(NC(=O)c3cccs3)cc2)cc1OC   5.93% (inactive)
4  COc1cccc2[nH]c3c(N4CCC5(CC4)OCCO5)ncnc3c12    1.2% (inactive)
5              COC(=O)/C=c1/sc2n(c1=O)CCN=2  -5.21% (inactive)
6         Cc1ccc(-c2nc3cnccn3c2Nc2ccccc2)o1   9.96% (inactive)

Entry `COc1cccc(CNC(=O)C2CCN(S(=O)(=O)c3c(C)nn(C)c3C)CC2)c1` needs its inhibition filled in; supply it.
-0.47% (inactive)

Entry `Cc1ccc(NC(=O)Cn2c(O)c(N=NC(=O)c3ccncc3)c3ccccc32)cc1` needs its inhibition filled in; supply it.
-1.42% (inactive)

Entry `CCSc1nc2c(c(-c3ccc(C)o3)c1C#N)CCCC2` needs its inhibition filled in; supply it.
2.67% (inactive)

Entry `O=C(NC1CCCCCC1)c1ccc(=O)n(Cc2ccccc2)n1` needs its inhibition filled in; supply it.
-0.36% (inactive)

Entry COc1cccc(-c2cc(C(F)(F)F)n3nc(C(=O)N4CCCCC4c4cccnc4)cc3n2)c1 (configuration not stated) needs its inhibition filled in; supply it.
-1.53% (inactive)

Entry `CCNc1nc(NCC)nc(N/N=C/c2cc(OC)c(OC)c(OC)c2)n1` needs its inhibition filled in; supply it.
-2.94% (inactive)

Entry `CC(=O)Nc1ccc(NC(=O)CCSCCc2ccccn2)cc1` needs its inhibition filled in; supply it.
-0.22% (inactive)
